# System: Enterococcus sp.
# method-notes: In vitro antibacterial evaluation: minimum inhibitory concentration (MIC), broth dilution method
# Assay type: cell-based
# protocol-conditions: broth dilution, 5×10^5 CFU/mL, 18 hours at 35° C.
endpoint-label: MIC Enterococccus faecalis (GC 4552) (µg/mL)
The reply should contain only the number, in µg/mL.

Consider the reported MIC Enterococccus faecalis (GC 4552) for these compounds:
{"compound": "CC(c1ccccc1)C1NC(=O)CNC(=O)C(CO)NC(=O)C(C(O)C2CNC(=N)N2C2OC(CO)C(O)C(O)C2O)NC(=O)C(C(O)C2CNC(=N)N2)NC(=O)C(Cc2ccc(OC3OC(CO)C(OC4OC5COC(c6ccsc6)OC5C(O)C4O)C(O)C3O)cc2)NC1=O (centres unmarked)", "endpoint-label": "MIC Enterococccus faecalis (GC 4552)", "value-measured": 8}
{"compound": "CC(c1ccccc1)C1NC(=O)CNC(=O)C(CO)NC(=O)C(C(O)C2CNC(=N)N2C2OC(CO)C(O)C(O)C2O)NC(=O)C(C(O)C2CNC(=N)N2)NC(=O)C(Cc2ccc(OC3OC(CO)C(OC4OC5COC(Cc6ccc(F)cc6)OC5C(O)C4O)C(O)C3O)cc2)NC1=O (centres unmarked)", "endpoint-label": "MIC Enterococccus faecalis (GC 4552)", "value-measured": 2}
{"compound": "N=C1NCC(C(O)C2NC(=O)C(Cc3ccc(OC4OC(CO)C(OC5OC(CO)C(O)C6OC7(OC56)C5CC6CC(C5)CC7C6)C(O)C4O)cc3)NC(=O)C(CC3CCCCC3)NC(=O)CNC(=O)C(CO)NC(=O)C(C(O)C3CNC(=N)N3C3OC(CO)C(O)C(O)C3O)NC2=O)N1 (centres unmarked) [Example 106a]", "endpoint-label": "MIC Enterococccus faecalis (GC 4552)", "value-measured": 4}

Look at this compound and give its reported MIC Enterococccus faecalis (GC 4552). CC(c1ccccc1)C1NC(=O)CNC(=O)C(CO)NC(=O)C(C(O)C2CNC(=N)N2C2OC(CO)C(O)C(O)C2O)NC(=O)C(C(O)C2CNC(=N)N2)NC(=O)C(Cc2ccc(OC3OC(CO)C(OC4OC5COC(Cc6ccc(Cl)cc6)OC5C(O)C4O)C(O)C3O)cc2)NC1=O (centres unmarked) 1

Give the measured MIC Enterococccus faecalis (GC 4552) of CC(c1ccccc1)C1NC(=O)CNC(=O)C(CO)NC(=O)C(C(O)C2CNC(=N)N2C2OC(CO)C(O)C(O)C2O)NC(=O)C(C(O)C2CNC(=N)N2)NC(=O)C(Cc2ccc(OC3OC(CO)C(OC4OC5COC(CC(C)(C)C)OC5C(O)C4O)C(O)C3O)cc2)NC1=O (centres unmarked) . 4

Source listed as patent US8247211B2.
